pIC50 overview
System tested: human HSL (Homo sapiens)
Construct: overlapping PCR to generate a full length human HSL ORF with a 3′-His6 tag; His6 (C)
Procedure details: Human Hormone-Sensitive Lipase (HSL) enzyme inhibition assay (colorimetric, DMPT substrate)
Run parameters: human full length HSL-His6, 2,3-dimercapto-1-propanol tributyrate substrate, 37° C. 20 minutes, absorbance at 405 nm; read-out: HSL hum IC50
Reminder that pIC50 means the negative base-10 logarithm of the concentration expressed in mol/L.

> print(dat)
                                   compound  measured.attribute  measured
1  O=C1N(c2ccc(C3CC3)cc2)CCC12CCN(CCc1ccccc1)CC2               pIC50      7.15
2  O=C1N(c2ccc(C3CC3)cc2)CCC12CCN(C[C@@H](O)c1ccccc1)CC2               pIC50      7.05
3  CC(O)(CN1CCC2(CC1)CCN(c1ccc(C3CC3)cc1)C2=O)c1ccccc1 (centres unmarked)               pIC50      7.00
4  C[C@@H](Oc1ccc(N2CCC3(CCN(CC(O)c4c(F)cccc4Cl)CC3)C2=O)cn1)C(F)(F)F (some centres unmarked)               pIC50      7.38
5  O=C1N(c2ccc(OC(F)(F)F)cc2)CCC12CCN(Cc1ccccc1)CC2               pIC50      7.40
6  C[C@@H](Oc1ccc(N2CCC3(CCN(CC(O)c4c(F)cccc4Cl)CC3)C2=O)cc1)C(F)(F)F (some centres unmarked)               pIC50      7.64
7  O=C1N(c2ccc(CC(F)(F)F)cc2)CCC12CCN(CC(O)c1c(F)cccc1Cl)CC2 (centres unmarked)               pIC50      7.74
8  CN(C(=O)CCN1CCC2(CC1)CCN(c1ccc(C3CC3)cc1)C2=O)C1CCCCC1               pIC50      6.49

Note to self: pIC50 recorded for O=C(CCN1CCC2(CC1)CCN(c1ccc(C3CC3)cc1)C2=O)Nc1ccc(F)cc1 was 7.22

The reported pIC50 of the compound O=C1N(c2ccc(C3CC3)cc2)CCC12CCN(C[C@H](O)c1ccc(F)cc1)CC2 was 7.70

Sample CN(C(=O)CN1CCC2(CC1)CCN(c1ccc(C3CC3)cc1)C2=O)C1CCCCC1 ; pIC50 observed: 7.22

Recorded pIC50 (compound O=C1N(c2ccc(C3CC3)cc2)CCC12CCN(CC(O)c1ccc(Cl)c(Cl)c1)CC2 (centres unmarked) ): 7.52

In plain terms, CCCCNC(=O)C(C(C)C)N1CCC2(CCN(c3ccc(C4CC4)cc3)C2=O)CC1 (centres unmarked) has a documented pIC50 of 7.70

// CCC(c1ccccc1)N1CCC2(CCN(c3ccc(C4CC4)cc3)C2=O)CC1 (centres unmarked) : pIC50 value = 7.52

* * *

Measured IC50, listed per entry for reference.
System tested: human HSL (Homo sapiens, UniProt Q05469)
Construct: overlapping PCR to generate a full length human HSL ORF with a 3′-His6 tag; His6 (C)
Procedure details: Human Hormone-Sensitive Lipase (HSL) enzyme inhibition assay (colorimetric, DMPT substrate)
Run parameters: human full length HSL-His6, 2,3-dimercapto-1-propanol tributyrate substrate, 37° C. 20 minutes, absorbance at 405 nm; read-out: HSL hum IC50
# number only, unit nM dropped from output

A selection of reference data follows.
> print(dat)
                                   compound  measured.attribute  uom  measured
1  C[C@@H](Oc1ccc(N2CCC3(CCN(CC(O)c4ccc(Cl)cc4Cl)CC3)C2=O)cn1)C(F)(F)F (some centres unmarked)                IC50   nM        22
2  O=C1N(c2ccc(OCC(F)(F)F)cc2)CCC12CCN(CC(O)c1c(F)cccc1Cl)CC2 (centres unmarked)                IC50   nM        35
3  COCCCNC(=O)CN1CCC2(CC1)CCN(c1ccc(C3CC3)cc1)C2=O                IC50   nM       710

# compound CCN(CC)C(=O)CN1CCC2(CC1)CCN(c1ccc(C3CC3)cc1)C2=O ; its IC50 = 380

Just so you know, measured IC50 for CCCCNC(=O)C(C)N1CCC2(CCN(c3ccc(C4CC4)cc3)C2=O)CC1 (centres unmarked) came out at 30

In plain terms, CC(C(=O)Nc1ccc(F)cc1)N1CCC2(CCN(c3ccc(C4CC4)cc3)C2=O)CC1 (centres unmarked) has a documented IC50 of 40

The compound O=C(CCN1CCC2(CC1)CCN(c1ccc(C3CC3)cc1)C2=O)NCc1ccc(C(F)(F)F)cc1 showed IC50 equal to 30

# IC50 of CCCCNC(=O)[C@@H](CCCC)N1CCC2(CCN(c3ccc(C4CC4)cc3)C2=O)CC1 = 11

* * *

System tested: human HSL (Homo sapiens, UniProt Q05469)
Construct: overlapping PCR to generate a full length human HSL ORF with a 3′-His6 tag; His6 (C)
Procedure details: Human Hormone-Sensitive Lipase (HSL) enzyme inhibition assay (colorimetric, DMPT substrate)
Run parameters: human full length HSL-His6, 2,3-dimercapto-1-propanol tributyrate substrate, 37° C. 20 minutes, absorbance at 405 nm; read-out: HSL hum IC50
The following compounds are listed with their measured log10 of IC50 values.
Note: values are log10 of IC50 expressed in nM.

> print(dat)
                                   compound  measured
1  CCCCNC(=O)C(CCCC)N1CCC2(CCN(c3ccc(C4CC4)cc3)C2=O)CC1 (centres unmarked) [Example 30]      1.30
2  O=C(CN1CCC2(CC1)CCN(c1ccc(C3CC3)cc1)C2=O)NCc1ccc(C(F)(F)F)cc1 [Example 12]      1.48

For this compound ( CCCCNC(=O)[C@H](CCCC)N1CCC2(CCN(c3ccc(C4CC4)cc3)C2=O)CC1 [Example 41] ), measured log10 of IC50 is 1.67

Noted for CN(Cc1ccccc1)C(=O)CCN1CCC2(CC1)CCN(c1ccc(C3CC3)cc1)C2=O [Example 21] : its log10 of IC50 reads 1.95

For reference, reported log10 of IC50 for CCCCNC(=O)C(c1ccccc1)N1CCC2(CCN(c3ccc(C4CC4)cc3)C2=O)CC1 (centres unmarked) [Example 29] stands at 1.60

Entry under test: O=C(CN1CCC2(CC1)CCN(c1ccc(C3CC3)cc1)C2=O)Nc1ccc(F)cc1 [Example 13] . Its log10 of IC50 was 1.90

Per the record, O=C1N(c2ccc(CC(F)(F)F)cc2)CCC12CCN(CC(O)c1ccc(Cl)cc1Cl)CC2 (centres unmarked) [Example 46] has log10 of IC50 of 1.28

So for O=C1N(c2ccc(C3CC3)cc2)CCC12CCN(Cc1ccc(C(F)(F)F)cc1)CC2 [Example 3] , the logged log10 of IC50 turned out to be 2.56

* * *

In this section, each of the compounds is paired with its reported IC50.
System tested: human HSL (Homo sapiens)
Construct: overlapping PCR to generate a full length human HSL ORF with a 3′-His6 tag; His6 (C)
Sequence (Q05469 1-1076): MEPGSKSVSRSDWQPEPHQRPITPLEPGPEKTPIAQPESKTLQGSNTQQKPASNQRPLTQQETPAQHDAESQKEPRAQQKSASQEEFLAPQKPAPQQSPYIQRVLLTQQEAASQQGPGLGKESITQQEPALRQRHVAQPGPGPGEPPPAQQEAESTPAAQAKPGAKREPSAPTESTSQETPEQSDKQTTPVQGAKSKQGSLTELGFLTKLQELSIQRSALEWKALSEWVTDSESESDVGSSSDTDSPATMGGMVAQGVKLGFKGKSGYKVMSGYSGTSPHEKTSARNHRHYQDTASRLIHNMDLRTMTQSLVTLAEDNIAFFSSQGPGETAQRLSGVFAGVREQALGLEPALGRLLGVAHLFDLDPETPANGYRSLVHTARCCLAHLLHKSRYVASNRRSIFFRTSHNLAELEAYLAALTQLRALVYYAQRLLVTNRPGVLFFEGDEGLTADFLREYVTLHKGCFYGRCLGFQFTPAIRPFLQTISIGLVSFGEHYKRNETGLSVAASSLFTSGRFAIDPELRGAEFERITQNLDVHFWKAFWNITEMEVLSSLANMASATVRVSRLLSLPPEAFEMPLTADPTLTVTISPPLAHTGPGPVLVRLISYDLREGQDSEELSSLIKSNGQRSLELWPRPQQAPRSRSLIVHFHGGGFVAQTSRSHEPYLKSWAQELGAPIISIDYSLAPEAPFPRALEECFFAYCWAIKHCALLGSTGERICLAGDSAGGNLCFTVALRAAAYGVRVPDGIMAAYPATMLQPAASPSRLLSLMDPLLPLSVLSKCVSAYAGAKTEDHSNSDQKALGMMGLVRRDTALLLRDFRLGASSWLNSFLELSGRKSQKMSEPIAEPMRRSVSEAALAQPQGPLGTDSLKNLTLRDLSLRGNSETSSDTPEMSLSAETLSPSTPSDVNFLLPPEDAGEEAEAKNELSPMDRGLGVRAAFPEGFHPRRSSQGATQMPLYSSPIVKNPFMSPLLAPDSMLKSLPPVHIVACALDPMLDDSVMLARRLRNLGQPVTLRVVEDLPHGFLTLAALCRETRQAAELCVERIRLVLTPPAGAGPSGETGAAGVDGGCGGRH
Procedure details: Human Hormone-Sensitive Lipase (HSL) enzyme inhibition assay (colorimetric, DMPT substrate)
Run parameters: human full length HSL-His6, 2,3-dimercapto-1-propanol tributyrate substrate, 37° C. 20 minutes, absorbance at 405 nm; read-out: HSL hum IC50
In your response, put the unit directly after the numeric value.

Lab book: IC50 of O=C1N(c2ccc(C3CC3)cc2)CCC12CCN(C[C@H](O)c1cccc(Cl)c1)CC2 [Example 36] noted as 30 nM

The compound CC(c1ccccc1)N1CCC2(CCN(c3ccc(C4CC4)cc3Cl)C2=O)CC1 (centres unmarked) [Example 6] showed IC50 equal to 980 nM

// IC50 lookup, compound = O=C1N(c2ccc(C3CC3)cc2)CCC12CCN(CC(O)c1ccc(Cl)cc1Cl)CC2 (centres unmarked) [Example 38] , result: 30 nM

// sample CCNC(=O)CN1CCC2(CC1)CCN(c1ccc(C3CC3)cc1)C2=O [Example 9] , its IC50 was 610 nM

The reported value for CCCCNC(=O)CCN1CCC2(CC1)CCN(c1ccc(C3CC3)cc1)C2=O [Example 18] in terms of IC50 is 460 nM

Memo: C[C@@H](Oc1ccc(N2CCC3(CCN(CC(O)c4ccc(Cl)cc4Cl)CC3)C2=O)cc1)C(F)(F)F (some centres unmarked) [Example 51] , reported IC50: 22 nM

The reported IC50 of the compound CCCCNC(=O)C(CC)N1CCC2(CCN(c3ccc(C4CC4)cc3)C2=O)CC1 (centres unmarked) [Example 28] was 30 nM

For record COc1ccc(C(C(O)C(N)=O)N2CCC3(CCN(c4ccc(C5CC5)cc4)C3=O)CC2)cc1 (centres unmarked) [Example 40] the listed IC50 is 165 nM
